This collection of values is drawn from patent US20050008896A1.

Catalogue of Solubility, Ethyl Acetate values
details: ethyl acetate; stood at room temperature overnight
Please reply with the bare figure in w/v % and do not write the unit itself.

>>> measurement("C[N+](C)(C)CCCC[N+](C)(C)C.O=C(C=C([O-])C(F)(F)F)c1ccc2ccccc2c1.O=C(C=C([O-])C(F)(F)F)c1ccc2ccccc2c1.O=C(C=C([O-])C(F)(F)F)c1ccc2ccccc2c1.O=C(C=C([O-])C(F)(F)F)c1ccc2ccccc2c1.O=C(C=C([O-])C(F)(F)F)c1ccc2ccccc2c1.O=C(C=C([O-])C(F)(F)F)c1ccc2ccccc2c1.O=C(C=C([O-])C(F)(F)F)c1ccc2ccccc2c1.O=C(C=C([O-])C(F)(F)F)c1ccc2ccccc2c1.[Eu+3].[Eu+3]")
1.54

# context switch: different molecule, same Solubility, Ethyl Acetate
Complete the entry with Solubility, Ethyl Acetate for C[N+](C)(C)CCCC[N+](C)(C)C.O=C(C=C([O-])C(F)(F)F)c1ccccc1.O=C(C=C([O-])C(F)(F)F)c1ccccc1.O=C(C=C([O-])C(F)(F)F)c1ccccc1.O=C(C=C([O-])C(F)(F)F)c1ccccc1.O=C(C=C([O-])C(F)(F)F)c1ccccc1.O=C(C=C([O-])C(F)(F)F)c1ccccc1.O=C(C=C([O-])C(F)(F)F)c1ccccc1.O=C(C=C([O-])C(F)(F)F)c1ccccc1.[Eu+3].[Eu+3] 3.55

----------
Catalogue of Solubility, Toluene values
details: toluene; stood at room temperature overnight
Please reply with the bare figure in w/v % and do not write the unit itself.

>>> measurement("C[N+](C)(C)CCCC[N+](C)(C)C.O=C(C=C([O-])C(F)(F)F)c1ccc2ccccc2c1.O=C(C=C([O-])C(F)(F)F)c1ccc2ccccc2c1.O=C(C=C([O-])C(F)(F)F)c1ccc2ccccc2c1.O=C(C=C([O-])C(F)(F)F)c1ccc2ccccc2c1.O=C(C=C([O-])C(F)(F)F)c1ccc2ccccc2c1.O=C(C=C([O-])C(F)(F)F)c1ccc2ccccc2c1.O=C(C=C([O-])C(F)(F)F)c1ccc2ccccc2c1.O=C(C=C([O-])C(F)(F)F)c1ccc2ccccc2c1.[Eu+3].[Eu+3] [Luminous Organic Compound 2]")
0.24

Complete the entry with Solubility, Toluene for C[N+](C)(C)CCCC[N+](C)(C)C.O=C(C=C([O-])C(F)(F)F)c1ccccc1.O=C(C=C([O-])C(F)(F)F)c1ccccc1.O=C(C=C([O-])C(F)(F)F)c1ccccc1.O=C(C=C([O-])C(F)(F)F)c1ccccc1.O=C(C=C([O-])C(F)(F)F)c1ccccc1.O=C(C=C([O-])C(F)(F)F)c1ccccc1.O=C(C=C([O-])C(F)(F)F)c1ccccc1.O=C(C=C([O-])C(F)(F)F)c1ccccc1.[Eu+3].[Eu+3] [Luminous Organic Compound 9] 0.30

----------
settings: toluene; stood at room temperature overnight
Measure: Solubility, Toluene (w/v %)
Please reply with the bare figure in w/v % and do not write the unit itself.

Known Solubility, Toluene results, listed for orientation:
>>> measurement("C[N+](C)(C)c1ccc([N+](C)(C)C)cc1.O=C(C=C([O-])C(F)(F)F)c1ccc2ccccc2c1.O=C(C=C([O-])C(F)(F)F)c1ccc2ccccc2c1.O=C(C=C([O-])C(F)(F)F)c1ccc2ccccc2c1.O=C(C=C([O-])C(F)(F)F)c1ccc2ccccc2c1.O=C(C=C([O-])C(F)(F)F)c1ccc2ccccc2c1.O=C(C=C([O-])C(F)(F)F)c1ccc2ccccc2c1.O=C(C=C([O-])C(F)(F)F)c1ccc2ccccc2c1.O=C(C=C([O-])C(F)(F)F)c1ccc2ccccc2c1.[Eu+3].[Eu+3]")
0.23
>>> measurement("C[N+](C)(C)CCCCCC[N+](C)(C)C.O=C(C=C([O-])C(F)(F)F)c1ccc2ccccc2c1.O=C(C=C([O-])C(F)(F)F)c1ccc2ccccc2c1.O=C(C=C([O-])C(F)(F)F)c1ccc2ccccc2c1.O=C(C=C([O-])C(F)(F)F)c1ccc2ccccc2c1.O=C(C=C([O-])C(F)(F)F)c1ccc2ccccc2c1.O=C(C=C([O-])C(F)(F)F)c1ccc2ccccc2c1.O=C(C=C([O-])C(F)(F)F)c1ccc2ccccc2c1.O=C(C=C([O-])C(F)(F)F)c1ccc2ccccc2c1.[Eu+3].[Eu+3]")
0.31
>>> measurement("C[N+](C)(C)CCCC[N+](C)(C)C.O=C(C=C([O-])C(F)(F)F)c1cccs1.O=C(C=C([O-])C(F)(F)F)c1cccs1.O=C(C=C([O-])C(F)(F)F)c1cccs1.O=C(C=C([O-])C(F)(F)F)c1cccs1.O=C(C=C([O-])C(F)(F)F)c1cccs1.O=C(C=C([O-])C(F)(F)F)c1cccs1.O=C(C=C([O-])C(F)(F)F)c1cccs1.O=C(C=C([O-])C(F)(F)F)c1cccs1.[Eu+3].[Eu+3]")
0.18

Complete the entry with Solubility, Toluene for CCCC[N+](C)(C)CCCC[N+](C)(C)CCCC.O=C(C=C([O-])C(F)(F)F)c1ccc2ccccc2c1.O=C(C=C([O-])C(F)(F)F)c1ccc2ccccc2c1.O=C(C=C([O-])C(F)(F)F)c1ccc2ccccc2c1.O=C(C=C([O-])C(F)(F)F)c1ccc2ccccc2c1.O=C(C=C([O-])C(F)(F)F)c1ccc2ccccc2c1.O=C(C=C([O-])C(F)(F)F)c1ccc2ccccc2c1.O=C(C=C([O-])C(F)(F)F)c1ccc2ccccc2c1.O=C(C=C([O-])C(F)(F)F)c1ccc2ccccc2c1.[Eu+3].[Eu+3] 3.86

Complete the entry with Solubility, Toluene for C[N+](C)(C)c1ccc(-c2ccc([N+](C)(C)C)cc2)cc1.O=C(C=C([O-])C(F)(F)F)c1ccc2ccccc2c1.O=C(C=C([O-])C(F)(F)F)c1ccc2ccccc2c1.O=C(C=C([O-])C(F)(F)F)c1ccc2ccccc2c1.O=C(C=C([O-])C(F)(F)F)c1ccc2ccccc2c1.O=C(C=C([O-])C(F)(F)F)c1ccc2ccccc2c1.O=C(C=C([O-])C(F)(F)F)c1ccc2ccccc2c1.O=C(C=C([O-])C(F)(F)F)c1ccc2ccccc2c1.O=C(C=C([O-])C(F)(F)F)c1ccc2ccccc2c1.[Eu+3].[Eu+3] 0.30

Complete the entry with Solubility, Toluene for C[N+](C)(C)CC[N+](C)(C)C.O=C(C=C([O-])C(F)(F)F)c1ccc2ccccc2c1.O=C(C=C([O-])C(F)(F)F)c1ccc2ccccc2c1.O=C(C=C([O-])C(F)(F)F)c1ccc2ccccc2c1.O=C(C=C([O-])C(F)(F)F)c1ccc2ccccc2c1.O=C(C=C([O-])C(F)(F)F)c1ccc2ccccc2c1.O=C(C=C([O-])C(F)(F)F)c1ccc2ccccc2c1.O=C(C=C([O-])C(F)(F)F)c1ccc2ccccc2c1.O=C(C=C([O-])C(F)(F)F)c1ccc2ccccc2c1.[Eu+3].[Eu+3] 0.52

Complete the entry with Solubility, Toluene for C[N+](C)(C)CCCC[N+](C)(C)C.O=C(C=C([O-])C(F)(F)F)c1ccc2ccccc2c1.O=C(C=C([O-])C(F)(F)F)c1ccc2ccccc2c1.O=C(C=C([O-])C(F)(F)F)c1ccc2ccccc2c1.O=C(C=C([O-])C(F)(F)F)c1ccc2ccccc2c1.O=C(C=C([O-])C(F)(F)F)c1ccc2ccccc2c1.O=C(C=C([O-])C(F)(F)F)c1ccc2ccccc2c1.O=C(C=C([O-])C(F)(F)F)c1ccc2ccccc2c1.O=C(C=C([O-])C(F)(F)F)c1ccc2ccccc2c1.[Al+3].[Al+3] 0.25
